Source listed as patent US8969361B2.

- experiment: Aqueous solubility (HPLC)
- Format: physicochemical
- condition_context: 23 °C, water, thermodynamic from solid
value_type: solubility at 3 min (µg/mL)

{"columns": ["compound", "value_type", "observed_result"],
 "data": [
  ["Nc1nc(O)c2ncn(COC(CO)CO)c2n1 [ganciclovir, reference compound]", "solubility at 3 min", 2600]
]}

====

- experiment: Aqueous solubility (HPLC)
- Format: physicochemical
- condition_context: thermodynamic from solid; water, 23° C., sonicated 3 min; read-out: aqueous solubility
Each record here notes measured solubility at 3 min.
value_type: solubility at 3 min (mg/mL)

{"columns": ["compound", "observed_result"],
 "data": [
  ["Nc1nc2c(ncn2COC(CO)COC(=O)C2(N)CC2c2ccccn2)c(=O)[nH]1 (stereo not drawn)", 253],
  ["Nc1nc2c(ncn2COC(CO)COC(=O)C2(N)CC2c2ccccc2)c(=O)[nH]1 (stereo not drawn)", 170],
  ["Nc1nc2c(ncn2COC(CO)COC(=O)C2(N)CC2C(F)(F)F)c(=O)[nH]1 (stereo not drawn)", 261]
]}

====

- experiment: Aqueous solubility (HPLC)
- Assay type: physicochemical
- condition_context: thermodynamic from solid; water, 23° C., sonicated 3 min; read-out: aqueous solubility
Output True for solubility at 3 min not less than 200 mg/mL; output False otherwise.

{"columns": ["molecule", "label_value"],
 "data": [
  ["CC1(C)CC1(N)C(=O)OCC(CO)OCn1cnc2c(=O)[nH]c(N)nc21 (centres unmarked)", "True"],
  ["Nc1nc2c(ncn2COC(CO)COC(=O)C2(N)CC2c2ccc(Br)cc2)c(=O)[nH]1 (centres unmarked)", "False"],
  ["Nc1nc2c(ncn2COC(CO)COC(=O)C2(N)CC2)c(=O)[nH]1 (centres unmarked)", "False"],
  ["Nc1nc2c(ncn2COC(CO)COC(=O)C2(N)CC2c2ccco2)c(=O)[nH]1 (centres unmarked)", "True"],
  ["CNC1(C(=O)OCC(CO)OCn2cnc3c(=O)[nH]c(N)nc32)CC1 (centres unmarked)", "True"]
]}
